Test system: PCSK9 gene
protocol text: PCSK9 gRNA/SpCas9 editing in primary human hepatocytes (Tables 2, 4)
Assay type: cell-based
measurement conditions: 2500 ng/RNA/mL; SpCas9 mRNA MS002 1:1 by weight
In the oligonucleotide strings, read from the 5' end, every base follows the letter of its sugar. An asterisk marks phosphorothioate; unmarked linkages are phosphodiester. Other units and linkages are bracketed, terminal groups are in braces. A string of capitals states the bases alone. m = 2'-O-methyl; r = 2'-OH (RNA)
measurement name: Human Primary Hepatocyte Editing % 2500 (%)
Give bare numbers, in %.

Example entries begin here.
>>> obs_value("GA157: PCSK9 gRNA; protospacer GCCGTCCTCCTCGGAACGCA (SEQ ID NO: 151) (nucleic acid) guide: mG*mC*mC*rGrUrCrCrUrCrCrUrCrGrGrArArCrGrCrArGrUrUrUrUrArGrArGrCrUrArGrArArArUrArGrCrArArGrUrUrArArArArUrArArGrGrCrUrArGrUrCrCrGrUrUrArUrCrArArCrUrUrGrArArArArArGrUrGrGrCrArCrCrGrArGrUrCrGrGrUrGrCrU*mU*mU*mU")
10.03
>>> obs_value("GA179: PCSK9 gRNA; protospacer GAGTGGCGACCTGCTGGAGC (SEQ ID NO: 173) (nucleic acid) guide: mG*mA*mG*rUrGrGrCrGrArCrCrUrGrCrUrGrGrArGrCrGrUrUrUrUrArGrArGrCrUrArGrArArArUrArGrCrArArGrUrUrArArArArUrArArGrGrCrUrArGrUrCrCrGrUrUrArUrCrArArCrUrUrGrArArArArArGrUrGrGrCrArCrCrGrArGrUrCrGrGrUrGrCrU*mU*mU*mU")
21.87

# evaluate next
QUERY: For the molecule GA220: PCSK9 gRNA; protospacer GTGCTCAACTGCCAAGGGAA (SEQ ID NO: 214) (nucleic acid, sugars from the 5' end m3 r94 m3, linkages s3 o93 s3 (s phosphorothioate, o phosphodiester), T or U not given here) guide: GUGCUCAACUGCCAAGGGAAGUUUUAGAGCUAGAAAUAGCAAGUUAAAAUAAGGCUAGUCCGUUAUCAACUUGAAAAAGUGGCACCGAGUCGGUGCUUUU , what Human Primary Hepatocyte Editing % 2500 is on record?
RESULT: 21.87
